experimental target: T1, PUF4 RNA-binding domain (Saccharomyces cerevisiae, UniProt P25339 537-888)
T1 sequence: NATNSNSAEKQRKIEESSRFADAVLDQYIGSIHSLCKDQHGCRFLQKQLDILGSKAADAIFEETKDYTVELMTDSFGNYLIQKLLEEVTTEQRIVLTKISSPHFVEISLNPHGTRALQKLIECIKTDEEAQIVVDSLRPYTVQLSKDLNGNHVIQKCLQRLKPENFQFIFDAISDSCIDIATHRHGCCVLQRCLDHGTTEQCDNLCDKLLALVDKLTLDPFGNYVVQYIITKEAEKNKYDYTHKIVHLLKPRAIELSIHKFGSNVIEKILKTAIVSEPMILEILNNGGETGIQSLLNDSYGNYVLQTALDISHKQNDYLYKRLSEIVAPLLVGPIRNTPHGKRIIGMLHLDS
assay protocol: Mg; RNA-MaP; 20 mM Na-HEPES pH 7.4, 30 mM KOAc, 0.75 mM MgCl2, 0.1% Tween-20, 5% glycerol, 0.1 mg/mL BSA, 2 mM DTT; 25 C; 0.0125-409.6 nM protein
condition summary: tags: N-His6-TEV cleaved; C-SNAP kept, Cy3B-labelled; label: tethered on chip by stalled RNA polymerase
Exercise: state measured Kd for each of the binders provided.

// query Reported Kd, binder ACAAACUCUACAUAACAAAC (ssRNA) [Ib_S3_P3E.1_K3.1_C3.1_H3.1_[G2C]_A3.1_[T5C]_F3.1_T3.1] : ____
// result > 2.3 µM

// query // lookup Kd for UCUCUUAUUAUAUAUUAUAUCUCUU (ssRNA) [Id_ii_S1_P4E.3_K4.2_C4.2_[C-2A]_H4.2_A4.1_F4.1_T4.2_[G10T]_[T11A]]
// result 0.0265 µM

// query Item UCUCUUUGUAUGUCCAUCUCUU (ssRNA) [Ic_S1_P5E.1_K5.1_C5.1_H5.1_A5.1_[T6G]_[A7T]_F5.1_[T8C]_[T9C]_T5.1] has what recorded Kd?
// result 0.363 µM

// query So what does the record say about Kd for Id_ii_S2_P5E.3_K5.2_C5.2_[T-1G]_H5.2_A5.1_F5.1_T5.2_[T11G]_[A12C] (ssRNA) RNA: UUUGAUUAAUAUGAUAUCGUUCUUUCUCGUAUAUUAUUAGCUUCUUUCUCGAUAUCAUAUUAAUCUUU ?
// result 0.0281 µM

// query Can you share its Kd? I mean this binder: Ib_S2_P3E.1_K3.1_C3.1_H3.1_[T1C]_[G2C]_A3.1_F3.1_T3.1 (ssRNA) RNA: UUUGAUUAAUAUGAUAUCGUUCUUUCUCCUAUAUAUUCUUUCUCGAUAUCAUAUUAAUCUUU
// result 0.495 µM

// query What Kd value was documented for this binder, UCUCUUUCUUAUAUUAUUACAUCUCUU (ssRNA) [Id_iii_S1_P5E.6_K5.2_C5.3_H5.2_A5.1_F5.1_T5.2_[T11C]] ?
// result 0.45 µM

These entries and their values trace back to paper PMC9352680.
